Reported values of Intact tracer (%) for individual entries
Assay: Ex vivo metabolite analysis (plasma and brain) in healthy male Wistar rats
Design: species or system rat
Conditions: rat plasma, 15 min p.i., male Wistar rats
# value in %; strip the unit string

[11CH3]Oc1ccc(Cl)c(C(=O)NCC23CC4(F)CC(F)(CC(F)(C4)C2)C3)c1 [[^11C]SMW139] :: 60

Would you mind telling me what Intact tracer (%) value was observed for [11CH3]Oc1ccc(Cl)c(C(=O)NCC23CC4CC(CC(C4)C2)C3)c1 [[^11C]1] ?
37

Would you mind telling me what Intact tracer (%) value was observed for [11CH3]Oc1ccc(Cl)c(C(=O)NCC23CC4CC(F)(CC(F)(C4)C2)C3)c1 [[^11C]3] ?
35

Would you mind telling me what Intact tracer (%) value was observed for [11CH3]Oc1ccc(Cl)c(C(=O)NCC23CC4CC(CC(F)(C4)C2)C3)c1 [[^11C]2] ?
37
